# Lookup of reported Activity keyed by entry
# Tested on: Salmonella typhimurium
# protocol_text: Mutagenic activity in Salmonella Typhimurium TA98 assessed as number of his+ revertants at 100 ug/plate after 48 to 72 hrs by Ames test in absence of S9 fraction
# Type: toxicity, organism-based
# condition_info: salmonella enterica subsp. enterica serovar typhimurium
Number only, please.

          structure_as_smiles  result_type  reading
0    C/C=C/c1ccc(OC)c(OC)c1OC     Activity       27
1  C/C=C/c1cc(OC)c(OC)c(OC)c1     Activity       30
2    C/C=C/c1c(OC)cc(OC)cc1OC     Activity       32

Here's the next entry for you.
Prompt line: Which Activity value belongs to C/C=C/c1c(OC)ccc(OC)c1OC.CC(C)CCC[C@@H](C)[C@H]1CC[C@H]2[C@@H]3CC=C4C[C@@H](O)CC[C@]4(C)[C@H]3CC[C@]12C ?
Response line: 26
